# assayDetails: Binding affinity to 5'-d(GTAATATTAC)2-3' DNA assessed as change in melting temperature at 1:1 DNA to compound molar ratio by spectrophotometric analysis
observationType: ΔTm (°C)
Value expressed in °C; do not type the unit.

# smilesText, ΔTm [°C]
rows = [
    ("Cc1cc2c3c(cccc3c1)C(=O)N(CCN(C)C)C2=O", 0),
    ("CC(=O)Nc1cc2c3c(cccc3c1)C(=O)N(CCN(C)C)C2=O", 8.6),
    ("CN(C)CCN1C(=O)c2cccc3cccc(c23)C1=O", 8.1),
    ("CN(C)CCN1C(=O)c2cccc3cc(Cl)cc(c23)C1=O", 4.5),
]

What value of measured ΔTm is listed for `CN(C)CCN1C(=O)c2cccc3cc([N+](=O)[O-])cc(c23)C1=O` ? 12.6

What value of measured ΔTm is listed for `CN(C)CCN1C(=O)c2cccc3cc(-c4ccccc4)cc(c23)C1=O` ? 0

What value of measured ΔTm is listed for `CN(C)CCN1C(=O)c2cccc3cc(Br)cc(c23)C1=O` ? 6.3

What value of measured ΔTm is listed for `CN(C)CCN1C(=O)c2cccc3cc(O)cc(c23)C1=O` ? 4.4

What value of measured ΔTm is listed for `CN(C)CCN1C(=O)c2cccc3cc(N)cc(c23)C1=O` ? 11.6

What value of measured ΔTm is listed for `CN(C)CCN1C(=O)c2cccc3cc(I)cc(c23)C1=O` ? 4.4

What value of measured ΔTm is listed for `CC(C)Nc1cc2c3c(cccc3c1)C(=O)N(CCN(C)C)C2=O` ? 7.3
